These measurements were taken from patent US4971967A.

Consider the following compounds; for each one, report its MIC.
Note to self: number, then unit, no commentary.

Exam item: Query for Micrococcus luteus ATCC 9341: what MIC does the record show for CC1CN(c2c(F)cc3c(=O)c(C(=O)O)c4scc5n4c3c2N(C)C5)CC(C)N1C (stereo not drawn) [Compound (P)] ?
Marked response: 0.39 µg/mL

Exam item: Query for Micrococcus luteus ATCC 9341: what MIC does the record show for CCN1CCN(c2c(F)cc3c(=O)c(C(=O)O)c4scc5n4c3c2N(C)C5)CC1 [Compound (J)] ?
Marked response: 0.39 µg/mL

Exam item: Query for Micrococcus luteus ATCC 9341: what MIC does the record show for CC1CN(c2c(F)cc3c(=O)c(C(=O)O)c4scc5n4c3c2N(C)C5)CC(C)N1 (stereo not drawn) [Compound (E)] ?
Marked response: 0.39 µg/mL

Exam item: Query for Micrococcus luteus ATCC 9341: what MIC does the record show for CN1CCN(c2c(F)cc3c(=O)c(C(=O)O)c4scc5n4c3c2N(C)C5)CC1 [Compound (A)] ?
Marked response: 0.39 µg/mL

Exam item: Query for Micrococcus luteus ATCC 9341: what MIC does the record show for CC1CN(c2c(F)cc3c(=O)c(C(=O)O)c4scc5n4c3c2N(C)C5)CCN1 (stereo not drawn) [Compound (D)] ?
Marked response: 0.39 µg/mL

Exam item: Query for Micrococcus luteus ATCC 9341: what MIC does the record show for CN1Cc2csc3c(C(=O)O)c(=O)c4cc(F)c(N5CCNCC5)c1c4n23 [Compound (C)] ?
Marked response: 0.39 µg/mL

Exam item: Query for Micrococcus luteus ATCC 9341: what MIC does the record show for CC1CN(c2c(F)cc3c(=O)c(C(=O)O)c4scc5n4c3c2N(C)C5)CCN1C (stereo not drawn) [Compound (O)] ?
Marked response: 0.39 µg/mL

Exam item: Query for Micrococcus luteus ATCC 9341: what MIC does the record show for CN1Cc2csc3c(C(=O)O)c(=O)c4cc(F)c(N5CCCC5)c1c4n23 [Compound (F)] ?
Marked response: 0.39 µg/mL

Exam item: Query for Micrococcus luteus ATCC 9341: what MIC does the record show for CN1Cc2csc3c(C(=O)O)c(=O)c4cc(F)c(N5CCC(O)C5)c1c4n23 (stereo not drawn) [Compound (G)] ?
Marked response: 0.39 µg/mL
